B1: KLHDC10 (parent)
chain: CPIIRIPNRFLRGHRPPPARSGHR

variants of: B1; test: protein stability index of a GFP-peptide fusion (GPS, HEK-293T) (PSI 1-6); higher = more stable; details: c terminus: a fixed tail appended;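 also: lentivirally expressed fusions sorted by FACS into six bins by GFP to DsRed ratio, PSI derived from sequencing read proportions per bin multiplied by bin number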
Returns one of Yes or No; Yes when protein stability index is >= 2.

variant code | class label
P16V | No
H14T | No
R15C | No
S21M | No
N8H | Yes

Exercise: // inclusive: protein stability index at least 2? input: `S21A`
Solution: No

Exercise: // inclusive: protein stability index at least 2? input: `P2D`
Solution: Yes

Recorded values, source the supplement of paper PMC10567573.
